Target: UniProt:Q16790
// assign T if Ki falls strictly below 0.2 µM, else F (ties count as F)

[[record]]
query_smiles = "NS(=O)(=O)c1ccc(-n2cc(C(=O)c3ccco3)nn2)cc1"
group = "F"

[[record]]
query_smiles = "Cc1ccc(C(=O)c2cn(-c3ccc(S(N)(=O)=O)cc3)nn2)cc1"
group = "F"

[[record]]
query_smiles = "Cc1ccc(C(=O)c2nnn(-c3ccc(S(N)(=O)=O)cc3)c2C(F)(F)F)cc1"
group = "T"

[[record]]
query_smiles = "NS(=O)(=O)c1ccc(-n2cc(C(=O)c3ccccn3)nn2)cc1"
group = "T"

[[record]]
query_smiles = "NS(=O)(=O)c1ccc(-n2nnc(C(=O)c3ccccn3)c2C(F)(F)F)cc1"
group = "T"

[[record]]
query_smiles = "NS(=O)(=O)c1ccc(-n2nnc(C(=O)c3ccc4ccccc4c3)c2C(F)(F)F)cc1"
group = "F"

[[record]]
query_smiles = "NS(=O)(=O)c1ccc(-n2nnc(C(=O)c3ccc(Br)cc3)c2C(F)(F)F)cc1"
group = "T"

[[record]]
query_smiles = "NS(=O)(=O)c1ccc(-n2nnc(C(=O)c3cccs3)c2C(F)(F)F)cc1"
group = "T"

